System: U251 CNS
The reply should be one of these categories: t = active, f = inactive

The examples below pair each entry with its known result.
>>> df
                                   compound       tgt  label
0  CC1CC[P+](c2ccccc2)(c2ccccc2)c2c1ccc1ccccc21 (configuration not stated)  U251 CNS      f
1  CCOCCCn1c2c(c3c(O)cccc31)C(=O)c1ccccc1-2  U251 CNS      f

Entry COc1ccc2c(c1)nc(C(=O)c1ccco1)c(C(F)(F)F)[n+]2[O-] : call = ? f

// outcome(item) with item = CCc1ccc(CCC(=O)Nc2ncc(Cc3ccc(Cl)cc3)s2)o1 t

Hello, I am checking results. What call was entered for CC(N)(Cc1c[nH]c2cccc(F)c12)C(=O)O (configuration not stated) ? f

The measured values listed here are drawn from PubChem BioAssay (NCI).
